Give photoluminescence quantum yield for every item shown.
procedure-details: photoluminescence quantum yield (fraction); solvent given as SMILES
condition-notes: in C1CCCCC1
One number for each entry.

Recorded results for 4 compounds are shown here.
CCCC1(CCC)c2cc(C#N)ccc2-c2ccc(C#N)cc21 | 0.32
CCCC1(CCC)c2ccccc2-c2ccc(-c3ccc4c(c3)C(CCC)(CCC)c3cc(-c5ccc6c(c5)C(CCC)(CCC)c5ccccc5-6)ccc3-4)cc21 | 0.91
Cc1cc(C)c(B(c2c(C)cc(C)cc2C)N2c3ccccc3C3(c4ccccc4-c4ccccc43)c3ccccc32)c(C)c1 | 0.978
COc1cc(C2=CC3=C(c4c(C)cc(C)cc4C)c4cc(-c5cc(OC)c(OC)c(OC)c5)c(-c5cc(OC)c(OC)c(OC)c5)n4[B-](F)(F)[N+]3=C2c2cc(OC)c(OC)c(OC)c2)cc(OC)c1OC | 0.33

For each entry beneath this line, provide reported photoluminescence quantum yield.
1. CC1=[N+]2C(=C(c3ccc(N(C)C)cc3)c3ccc(C)n3[B-]2(F)F)C=C1
2. CCN(CC)c1ccc2c(c1)oc(=O)c1c(C)nc3c(c(C)nn3-c3ccccc3)c12
3. Cc1cc(C)c(B2c3cc(C(C)(C)C)ccc3-c3cccc4cc(C(C)(C)C)cc2c34)c(C)c1
4. CCN(CC)c1ccc(/C=C/C2=[O+][B-](F)(F)Oc3c2c(=O)oc2cc(N(CC)CC)ccc32)cc1
5. CC(=O)c1ccc(-c2nc3ccc(N(C)C)cc3s2)cc1
6. CC(C)(C)c1ccc(C2=c3c(c4ccc(C(C)(C)C)cc4c4cc(C(C)(C)C)ccc34)=[N+]3C2=C(c2ccccc2)c2c(-c4ccc(C(C)(C)C)cc4)c4c5ccc(C(C)(C)C)cc5c5cc(C(C)(C)C)ccc5c4n2[B-]3(F)F)cc1
7. CC(C)(C)c1ccc2c(c1)Cc1cc(C(C)(C)C)ccc1-2

0.37
0.852
0.8
0.46
0.88
0.44
0.7

Hey, just so you know, these numbers are from the Deep4Chem optical property database.
